# Tested On: T1, Fc fused human IL-18Rα (human, UniProt Q13478 19-329, limits assumed)
# T1 construct: also called IL-18Rα monomer; human IL-18 receptor alpha (CD218a); not shown: Fc
# T1 sequence (looked up): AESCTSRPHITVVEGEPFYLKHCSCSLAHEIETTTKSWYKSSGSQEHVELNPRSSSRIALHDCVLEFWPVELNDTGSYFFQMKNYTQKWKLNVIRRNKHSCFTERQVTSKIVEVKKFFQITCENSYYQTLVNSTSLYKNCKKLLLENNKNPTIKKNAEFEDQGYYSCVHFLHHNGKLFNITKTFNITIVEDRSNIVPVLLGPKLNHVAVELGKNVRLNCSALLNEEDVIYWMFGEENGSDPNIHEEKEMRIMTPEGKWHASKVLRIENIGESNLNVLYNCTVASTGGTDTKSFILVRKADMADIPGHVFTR
# Test: SPR, Fc-IL-18Rα captured, 1:1 fit
Measurement Kind: log10(kon) (log10 of the value in M⁻¹ s⁻¹)

>>> reading("IL-18 variant SEQ ID NO: 30 with 5 kDa PEG (E6K, V11I, C38A, K53A, T63A, C76A, C127A, C68-5kPEG) (ligand, 5 kDa PEG on Cys 68 (C68-5kPEG), also called 30 + PEG5) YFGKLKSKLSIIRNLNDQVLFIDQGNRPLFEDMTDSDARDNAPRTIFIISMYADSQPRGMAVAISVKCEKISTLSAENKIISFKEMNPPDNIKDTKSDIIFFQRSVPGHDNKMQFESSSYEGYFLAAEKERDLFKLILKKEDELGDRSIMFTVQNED")
5.68
>>> reading("IL-18 variant SEQ ID NO: 61 with 30 kDa PEG (E6K, C38A, K53A, C76A, C68-30kPEG) (ligand, 30 kDa PEG on Cys 68 (C68-30kPEG), also called 61 + PEG) YFGKLKSKLSVIRNLNDQVLFIDQGNRPLFEDMTDSDARDNAPRTIFIISMYADSQPRGMAVTISVKCEKISTLSAENKIISFKEMNPPDNIKDTKSDIIFFQRSVPGHDNKMQFESSSYEGYFLACEKERDLFKLILKKEDELGDRSIMFTVQNED")
4.46
>>> reading("IL-18 variant SEQ ID NO: 60 (E6K, C38Q, K53A) (ligand) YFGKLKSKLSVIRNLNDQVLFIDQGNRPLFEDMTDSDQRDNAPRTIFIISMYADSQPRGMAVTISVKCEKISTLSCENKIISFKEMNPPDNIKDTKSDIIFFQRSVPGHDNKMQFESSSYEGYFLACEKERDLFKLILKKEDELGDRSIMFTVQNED")
6.01
>>> reading("IL-18 variant SEQ ID NO: 57 with 30 kDa PEG (E6K, C38S, K53A, C68-30kDPEG) (ligand, 30 kDa PEG on Cys 68 (C68-30kDPEG), also called 57 + PEG30; 57 + PEG) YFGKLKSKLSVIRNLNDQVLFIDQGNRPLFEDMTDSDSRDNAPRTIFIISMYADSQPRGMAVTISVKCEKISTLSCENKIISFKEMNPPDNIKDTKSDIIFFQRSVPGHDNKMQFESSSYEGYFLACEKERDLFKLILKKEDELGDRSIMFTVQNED")
4.58
>>> reading("IL-18 variant SEQ ID NO: 63 (E6K, C38A, K53A, C76A, C127A) (ligand) YFGKLKSKLSVIRNLNDQVLFIDQGNRPLFEDMTDSDARDNAPRTIFIISMYADSQPRGMAVTISVKCEKISTLSAENKIISFKEMNPPDNIKDTKSDIIFFQRSVPGHDNKMQFESSSYEGYFLAAEKERDLFKLILKKEDELGDRSIMFTVQNED")
7.36
>>> reading("IL-18 variant SEQ ID NO: 60 with 30 kDa PEG (E6K, C38Q, K53A, C68-30kPEG) (ligand, 30 kDa PEG on Cys 68 (C68-30kPEG), also called 60 + PEG) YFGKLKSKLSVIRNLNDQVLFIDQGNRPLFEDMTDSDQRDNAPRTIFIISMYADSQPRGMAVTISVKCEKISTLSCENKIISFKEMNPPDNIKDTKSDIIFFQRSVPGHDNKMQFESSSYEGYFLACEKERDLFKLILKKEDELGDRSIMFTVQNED")
4.82
>>> reading("IL-18 variant SEQ ID NO: 62 (E6K, C38A, K53A, C127A) (ligand) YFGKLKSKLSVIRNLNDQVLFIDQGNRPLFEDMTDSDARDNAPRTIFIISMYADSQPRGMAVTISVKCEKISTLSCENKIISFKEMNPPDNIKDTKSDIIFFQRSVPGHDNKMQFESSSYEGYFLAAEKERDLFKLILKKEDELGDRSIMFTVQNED")
5.82
>>> reading("IL-18 variant SEQ ID NO: 30 with 20 kDa PEG (E6K, V11I, C38A, K53A, T63A, C76A, C127A, C68-20kPEG) (ligand, 20 kDa PEG on Cys 68 (C68-20kPEG), also called 30 + PEG20) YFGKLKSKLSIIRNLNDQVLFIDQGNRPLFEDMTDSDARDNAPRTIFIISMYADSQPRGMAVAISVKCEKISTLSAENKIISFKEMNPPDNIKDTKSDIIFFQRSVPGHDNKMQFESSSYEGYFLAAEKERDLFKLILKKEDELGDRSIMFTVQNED")
5.33
>>> reading("IL-18 variant SEQ ID NO: 61 (E6K, C38A, K53A, C76A) (ligand) YFGKLKSKLSVIRNLNDQVLFIDQGNRPLFEDMTDSDARDNAPRTIFIISMYADSQPRGMAVTISVKCEKISTLSAENKIISFKEMNPPDNIKDTKSDIIFFQRSVPGHDNKMQFESSSYEGYFLACEKERDLFKLILKKEDELGDRSIMFTVQNED")
6.35
>>> reading("IL-18 variant SEQ ID NO: 59 with 30 kDa PEG (E6K, C38A, K53A, C68-30kDPEG) (ligand, 30 kDa PEG on Cys 68 (C68-30kDPEG), also called 59 + PEG30; 59 + PEG) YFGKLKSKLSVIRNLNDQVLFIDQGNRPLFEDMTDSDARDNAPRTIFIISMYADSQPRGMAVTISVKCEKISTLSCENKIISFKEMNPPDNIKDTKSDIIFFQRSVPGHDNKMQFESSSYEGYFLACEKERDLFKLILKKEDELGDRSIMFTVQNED")
4.87
>>> reading("IL-18 variant SEQ ID NO: 30 with 10 kDa PEG (E6K, V11I, C38A, K53A, T63A, C76A, C127A, C68-10kPEG) (ligand, 10 kDa PEG on Cys 68 (C68-10kPEG), also called 30 + PEG10) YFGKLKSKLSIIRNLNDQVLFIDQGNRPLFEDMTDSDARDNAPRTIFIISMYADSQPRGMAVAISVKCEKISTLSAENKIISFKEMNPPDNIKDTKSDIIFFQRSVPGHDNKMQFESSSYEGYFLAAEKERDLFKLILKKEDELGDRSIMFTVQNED")
5.51
>>> reading("IL-18 variant SEQ ID NO: 30 (E6K, V11I, C38A, K53A, T63A, C76A, C127A) (ligand) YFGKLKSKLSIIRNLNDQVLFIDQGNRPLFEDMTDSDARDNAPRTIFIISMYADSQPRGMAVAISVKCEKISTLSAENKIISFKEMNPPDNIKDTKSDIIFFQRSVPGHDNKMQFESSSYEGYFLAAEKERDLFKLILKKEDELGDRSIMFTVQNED")
6.25
